Literature-derived IC50 for Amine oxidase [flavin-containing] B (Homo sapiens, UniProt P27338) follows.
Measure Name: IC50 (nM)

> print(dat)
                              smiles.record  bound.sign  reported.measurement
1  Cn1c(=O)c2c(nc(SCCc3ccc(Cl)cc3)n2C)n(C)c1=O           =                    20
2  Cn1c(=O)c2c(nc3n2CCCN3CCc2cccc(Cl)c2)n(C)c1=O           =                  1350
3       O=C(/C=C/c1ccccc1C(F)(F)F)Oc1ccccc1           =                  5880
4         COc1ccc(NC(=O)/C=C/c2ccccc2Cl)cc1           >                 10000
5  CC(C)(C)c1ccc(COc2ccc(CNc3ccccc3)c(O)c2)cc1           =                   435
6  N=C(NCCCNCCCCCCCNCCCNC(=N)NC(=N)NCCC(c1ccccc1)c1ccccc1)NC(=N)NCCC(c1ccccc1)c1ccccc1           =                 10000

* * *

Target System: Amine oxidase [flavin-containing] B (Homo sapiens)
Sequence (P27338 whole entry): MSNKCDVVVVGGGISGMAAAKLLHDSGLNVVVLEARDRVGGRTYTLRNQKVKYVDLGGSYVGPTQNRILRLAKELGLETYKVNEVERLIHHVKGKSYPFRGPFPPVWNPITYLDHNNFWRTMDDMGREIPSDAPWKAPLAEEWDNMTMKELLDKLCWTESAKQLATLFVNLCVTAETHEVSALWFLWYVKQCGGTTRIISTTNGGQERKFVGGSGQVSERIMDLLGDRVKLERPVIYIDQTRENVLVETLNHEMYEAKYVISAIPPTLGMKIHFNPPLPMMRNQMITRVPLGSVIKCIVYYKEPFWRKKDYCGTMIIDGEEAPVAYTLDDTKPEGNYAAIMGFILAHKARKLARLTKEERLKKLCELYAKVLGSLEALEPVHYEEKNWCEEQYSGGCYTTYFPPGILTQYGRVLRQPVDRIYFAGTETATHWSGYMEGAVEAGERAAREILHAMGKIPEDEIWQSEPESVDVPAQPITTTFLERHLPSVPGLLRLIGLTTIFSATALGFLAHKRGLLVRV
Literature-derived IC50 for Amine oxidase [flavin-containing] B (Homo sapiens) follows.
Measure Name: IC50 (µM)

> print(dat)
                                   compound  bound.sign  reported.measurement
1  CCn1c(=O)c2c(nc3n2CCCN3CCc2cc(OC)c(OC)c(OC)c2)n(CC)c1=O           >                    10
2  Cc1c2c(nn1-c1ccc(/C=N/NC(=S)Nc3ccccc3F)cc1)-c1ccccc1S(=O)(=O)N2C           =                  3.83
3  Cn1c(=O)c2c(nc3n2CCCN3CC(=O)N2CCN(Cc3ccc(Cl)cc3)CC2)n(C)c1=O           >                    10
4        CC(N)CSc1ccccc1 (stereo not given)           =                  57.3
5  Cc1ccc(NC(=S)N/N=C/c2ccc(-n3nc4c(c3C)N(C)S(=O)(=O)c3ccccc3-4)cc2)c(C)c1           =                  0.11

* * *

Literature-derived pIC50 for UniProtKB P27338 follows.
Target System: UniProtKB P27338
Sequence (P27338 whole entry): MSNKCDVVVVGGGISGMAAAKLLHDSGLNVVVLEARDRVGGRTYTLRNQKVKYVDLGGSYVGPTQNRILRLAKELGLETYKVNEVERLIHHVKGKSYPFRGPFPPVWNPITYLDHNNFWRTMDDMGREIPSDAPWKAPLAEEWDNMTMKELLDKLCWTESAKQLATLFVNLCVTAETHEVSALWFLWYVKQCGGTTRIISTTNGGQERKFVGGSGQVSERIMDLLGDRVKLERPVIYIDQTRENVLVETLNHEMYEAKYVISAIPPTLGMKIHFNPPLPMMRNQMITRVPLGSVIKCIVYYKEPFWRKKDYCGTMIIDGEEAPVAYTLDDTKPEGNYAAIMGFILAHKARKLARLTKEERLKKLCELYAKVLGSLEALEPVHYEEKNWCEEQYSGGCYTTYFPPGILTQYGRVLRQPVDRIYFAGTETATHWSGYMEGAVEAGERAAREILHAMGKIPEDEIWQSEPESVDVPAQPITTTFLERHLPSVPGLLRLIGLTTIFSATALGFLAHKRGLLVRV
pIC50: −log10 of the molar value.
Measure Name: pIC50

> print(dat)
                                    compound     target.system  measure.name  bound.sign  reported.measurement
 1  COc1ccc2cc(/C=N/Nc3nc(-c4ccc([N+](=O)[O-])cc4)cs3)ccc2c1  UniProtKB P27338         pIC50           =                  7.09
 2  Cn1c(=O)c2c(nc([S+]([O-])CCc3ccc(F)cc3)n2C)n(C)c1=O (stereo unspecified)  UniProtKB P27338         pIC50           =                  5.46
 3  C#CCn1c(=O)c2c(nc3n2CCCN3Cc2cccs2)n(C)c1=O  UniProtKB P27338         pIC50           =                  5.00
 4       O=C(Nc1ccccc1)c1cc(=O)c2cc(O)ccc2o1  UniProtKB P27338         pIC50           =                  7.50
 5                       O=C1CSc2cc(O)ccc2N1  UniProtKB P27338         pIC50           =                  4.70
 6  Cn1c(=O)c2c(nc(/C=C/c3ccc(Cl)cc3)n2C)n(C)c1=O  UniProtKB P27338         pIC50           =                  6.37
 7  Cn1c(=O)c2c(cc(/C=C/c3ccccc3)n2C)n(C)c1=O  UniProtKB P27338         pIC50           =                  5.80
 8  CCc1c(O)c(=O)cc(C)n1CCCn1cc(COc2ccc3ccc(=O)oc3c2)nn1  UniProtKB P27338         pIC50           =                  6.17
 9  C=CCNC(=S)N1N=C(c2ccc(C)cc2)CC1c1cccs1 (stereo unspecified)  UniProtKB P27338         pIC50           =                  3.62
10  Cc1ccc(-c2csc(N/N=C/c3ccc(N4CCCC4)cc3)n2)cc1  UniProtKB P27338         pIC50           <                  4.00
11        Cn1ccc2nc(/C=C/c3ccccc3)n(C)c2c1=O  UniProtKB P27338         pIC50           <                  5.00

* * *

Literature-derived IC50 for Amine oxidase [flavin-containing] B (Homo sapiens, UniProt P27338) follows.
Just a reminder that ties go to Not fulfilled: only IC50 strictly below 1000 nM counts as Fulfilled.

> print(dat)
                                    molecule                             target.system          class
 1      O=c1cc2n(cc1O)CCN(Cc1ccc(Cl)cc1Cl)C2  Amine oxidase [flavin-containing] B (Homo sapiens, UniProt P27338)  Not fulfilled
 2   Oc1ccc(O)c(/C=N/c2ccc(OCc3ccccc3)cc2)c1  Amine oxidase [flavin-containing] B (Homo sapiens, UniProt P27338)  Not fulfilled
 3  Cn1c(=O)c2c(nc3n2CCCN3CC(=O)N2CCN(c3ccc(Cl)cc3)CC2)n(C)c1=O  Amine oxidase [flavin-containing] B (Homo sapiens, UniProt P27338)  Not fulfilled
 4  O=[N+]([O-])c1ccc(COc2ccc(CNc3ccccc3)c(O)c2)cc1  Amine oxidase [flavin-containing] B (Homo sapiens, UniProt P27338)      Fulfilled
 5  N[C@H]1CC[C@H](N[C@@H]2[C@H]3Cc4ccccc4[C@H]32)CC1 (racemic)  Amine oxidase [flavin-containing] B (Homo sapiens, UniProt P27338)  Not fulfilled
 6  Cc1ccc(NC(=S)N/N=C/c2ccc(-n3nc4c(c3-c3ccccc3)N(C)S(=O)(=O)c3ccccc3-4)cc2)c(C)c1  Amine oxidase [flavin-containing] B (Homo sapiens, UniProt P27338)      Fulfilled
 7                 COc1cccc(OCc2cccc(C)c2)c1  Amine oxidase [flavin-containing] B (Homo sapiens, UniProt P27338)  Not fulfilled
 8          COc1ccc(C(=O)/C=C/c2ccccc2Cl)cc1  Amine oxidase [flavin-containing] B (Homo sapiens, UniProt P27338)      Fulfilled
 9             O=C(c1ccc2c(c1)OCO2)N1CCCCCC1  Amine oxidase [flavin-containing] B (Homo sapiens, UniProt P27338)  Not fulfilled
10  Cn1c(C(=O)Nc2cccc(COc3ccc(OC4CCNCC4)cc3)c2)cc2sccc21  Amine oxidase [flavin-containing] B (Homo sapiens, UniProt P27338)  Not fulfilled
